// provenance: patent US20100056477A1

In this section we review reported Efficacy in % a.e. (actual efficacy) values for a set of compounds.
tested on: Septoria tritici; test: Septoria tritici test (wheat)/protective; format: in vivo; details: single active compound, rate of application 125 ppm, protective, evaluated 20 days after inoculation
Answer in %, number only, no unit symbol.

Please review the following examples before continuing.
CC(C)[C@@H]1C2CCC1c1c(NC(=O)c3cn(C)nc3C(F)F)cccc12 (stereo partly shown)	30
N#Cc1c[nH]cc1-c1cccc2c1OC(F)(F)O2	30
CCN(C)/C=N/c1cc(C(F)(F)F)c(OCCC[Si](C)(C)C)cc1C	30

Now look at this one.
Prompt line: Which Efficacy in % a.e. (actual efficacy) is listed for Cn1cc(C(=O)Nc2ccccc2C2CC2C2CC2)c(C(F)F)n1 (stereo not shown) [(b-1), reference compound] ?
Response line: 10

---

assay: LogP (HCOOH); settings: HCOOH (formic acid)
chromatographic logP values by entry

CCN(C)/C=N/c1cc(C(F)F)c(OCCC[Si](C)(C)C)cc1C	2.81

Okay, now this compound:
Prompt line: Could you tell me which chromatographic logP is on file for "Cc1cc(OCCC[Si](C)(C)C)c(C(F)F)cc1N" ?
Response line: 3.8
